# system.under.test: GluA1o-γ8 (GRIA1o-CACNG8 fusion construct; TARP γ8 dependent AMPA receptor) (Homo sapiens (Human), UniProt P42261+Q8WXS5)
# Sequence (P42261 other isoform, or with tags, fused parts or gaps): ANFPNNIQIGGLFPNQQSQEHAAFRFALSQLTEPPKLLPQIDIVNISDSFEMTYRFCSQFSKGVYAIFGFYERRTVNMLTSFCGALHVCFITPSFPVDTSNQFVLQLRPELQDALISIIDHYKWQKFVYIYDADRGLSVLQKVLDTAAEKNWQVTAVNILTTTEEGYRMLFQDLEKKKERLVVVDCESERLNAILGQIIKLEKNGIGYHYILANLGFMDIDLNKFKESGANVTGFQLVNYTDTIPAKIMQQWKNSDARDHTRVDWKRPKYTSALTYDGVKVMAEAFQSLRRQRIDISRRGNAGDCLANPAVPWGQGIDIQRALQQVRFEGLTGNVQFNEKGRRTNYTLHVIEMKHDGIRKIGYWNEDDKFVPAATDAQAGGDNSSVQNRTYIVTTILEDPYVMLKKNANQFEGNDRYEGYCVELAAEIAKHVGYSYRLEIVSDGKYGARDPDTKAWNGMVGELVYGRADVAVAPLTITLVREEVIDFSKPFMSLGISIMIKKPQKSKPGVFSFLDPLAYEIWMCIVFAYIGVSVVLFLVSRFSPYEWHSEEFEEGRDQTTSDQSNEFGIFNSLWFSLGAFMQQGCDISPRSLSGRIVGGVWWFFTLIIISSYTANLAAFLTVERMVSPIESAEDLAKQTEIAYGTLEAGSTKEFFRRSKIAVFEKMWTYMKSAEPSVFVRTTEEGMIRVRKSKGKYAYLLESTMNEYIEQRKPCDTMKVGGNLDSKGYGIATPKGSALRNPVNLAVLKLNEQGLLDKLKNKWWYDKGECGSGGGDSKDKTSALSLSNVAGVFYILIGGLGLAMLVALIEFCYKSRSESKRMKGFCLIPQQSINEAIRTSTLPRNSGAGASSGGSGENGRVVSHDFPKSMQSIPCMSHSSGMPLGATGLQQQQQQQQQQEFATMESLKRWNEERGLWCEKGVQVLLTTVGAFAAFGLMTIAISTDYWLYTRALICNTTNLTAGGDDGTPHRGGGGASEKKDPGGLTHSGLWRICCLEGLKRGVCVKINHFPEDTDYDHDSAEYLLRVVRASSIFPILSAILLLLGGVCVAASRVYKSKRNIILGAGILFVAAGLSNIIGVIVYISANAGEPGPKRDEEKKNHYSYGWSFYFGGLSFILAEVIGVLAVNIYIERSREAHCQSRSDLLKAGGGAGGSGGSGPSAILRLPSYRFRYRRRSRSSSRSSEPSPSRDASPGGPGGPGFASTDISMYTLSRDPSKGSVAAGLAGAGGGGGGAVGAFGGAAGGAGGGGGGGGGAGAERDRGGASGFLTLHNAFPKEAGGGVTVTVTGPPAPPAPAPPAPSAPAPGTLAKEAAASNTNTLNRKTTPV
# assay.notes: Calcium flux assay (FLIPR), inhibition of glutamate response of GluA1o-γ8 channel
# Assay type: cell-based
# experimental.parameters: HEK293 cells stably expressing GRIA1o-CACNG8 fusion; 15 μM glutamate; negative log of the IC50 in molar
test.readout: pIC50

Some solved entries appear below for comparison.
FC(F)(F)c1ccc2nn(-c3ccccc3)c(-c3ccc4[nH]ncc4c3)c2n1 8.5
CCn1nc2ccc(C(F)(F)F)nc2c1-c1cc(C)c2c(c1)CC(=O)N2 8.3
Cc1cc(-c2c3nccc(C(F)F)c3nn2C(C)C)cc2cn[nH]c12 6.9
O=c1[nH]c2ccc(-c3c4nc(C(F)(F)F)ccc4nn3C3CCCC3)cc2[nH]1 7.8
Cc1cc(-c2c3nc(C(F)(F)F)ccc3nn2C(F)F)cc2c1NC(=O)C2 9.0
COCCn1nc2ccc(C(F)(F)F)nc2c1-c1ccc2[nH]ncc2c1 6.1
CCn1nc2ccc(C(F)(F)F)nc2c1-c1ccc2[nH]c(=O)[nH]c2c1 7.0
Cc1cc(-c2c3nc(C(F)(F)F)ccc3nn2C2CCC2)cc2c1NC(=O)C2 10.3
Cc1cc(-c2c3nc(C(F)(F)F)ccc3nn2C(F)F)cc2cn[nH]c12 9.2
O=c1[nH]c2ccc(-c3c4nc(C(F)(F)F)ccc4nn3-c3ccccc3)cc2[nH]1 8.8

I. Cc1cc(-c2c3nc(C(F)F)ccc3nn2C(C)C)cc2cn[nH]c12
II. O=c1[nH]c2ccc(-c3c4nc(C(F)(F)F)ccc4nn3CC3CCC3)cc2[nH]1
Please indicate which item has the smaller measured pIC50: I versus II Answer = label.
II
(II: 6.9, I: 10.0)

====

# system.under.test: GluA1o-γ8 (GRIA1o-CACNG8 fusion construct; TARP γ8 dependent AMPA receptor) (Homo sapiens (Human), UniProt P42261+Q8WXS5)
# assay.notes: Calcium flux assay (FLIPR), inhibition of glutamate response of GluA1o-γ8 channel
# experimental.parameters: HEK293 cells stably expressing GRIA1o-CACNG8 fusion; 15 μM glutamate; negative log of the IC50 in molar
test.readout: pIC50
// scale note: pIC50 = -log10(conc_M); give the bare number

Entry CCn1nc2ccc(C(F)(F)F)nc2c1-c1cc(C)c2[nH]ncc2c1 — recorded pIC50 = 9.10

====

# system.under.test: GluA1o-γ8 (GRIA1o-CACNG8 fusion construct; TARP γ8 dependent AMPA receptor) (Homo sapiens (Human), UniProt P42261+Q8WXS5)
# assay.notes: Calcium flux assay (FLIPR), inhibition of glutamate response of GluA1o-γ8 channel
# Assay type: cell-based
# experimental.parameters: HEK293 cells stably expressing GRIA1o-CACNG8 fusion; 15 μM glutamate; negative log of the IC50 in molar
test.readout: pIC50

A. Cn1nc2ccc(C(F)(F)F)nc2c1-c1ccc2[nH]c(=O)[nH]c2c1 [Example 1]
B. Cc1cc(-c2c3nc(C(F)(F)F)ccc3nn2C(C)C)cc2cn[nH]c12 [Example 23]
I would appreciate it if you could say which entry, A or B , has the lower pIC50 value. Choose, then provide that item's label.
A
(A: 6.5, B: 9.6)

====

# system.under.test: GluA1o-γ8 (GRIA1o-CACNG8 fusion construct; TARP γ8 dependent AMPA receptor) (Homo sapiens (Human), UniProt P42261+Q8WXS5)
# assay.notes: Calcium flux assay (FLIPR), inhibition of glutamate response of GluA1o-γ8 channel
# Format: cell-based
# experimental.parameters: HEK293 cells stably expressing GRIA1o-CACNG8 fusion; 15 μM glutamate; negative log of the IC50 in molar
test.readout: pIC50

compound	test.result
CC(C)n1nc2cccnc2c1-c1cc(Cl)c2[nH]ncc2c1 [Example 39]	7.2
CCn1nc2ccc(C(F)(F)F)nc2c1-c1cc(Cl)c2c(c1)CC(=O)N2 [Example 18]	8.6
FC(F)(F)c1ccc2nn(C3CCC3)c(-c3ccc4[nH]ncc4c3)c2n1 [Example 12]	9.2
Cc1cc(-c2c3nc(C(F)(F)F)ccc3nn2C(C)C)cc2c1NC(=O)C2 [Example 21]	9.4
CCn1nc2ccc(C(F)(F)F)nc2c1-c1cc(Cl)c2[nH]ncc2c1 [Example 20]	9.4

1. FC(F)(F)c1ccc2nn(-c3ccccn3)c(-c3ccc4[nH]ncc4c3)c2n1 [Example 14]
2. O=C1Cc2cc(-c3c4nc(C(F)(F)F)ccc4nn3C3CCC3)cc(Cl)c2N1 [Example 26]
Kindly identify the item with the lower pIC50 figure among these two: 1 and 2 Kindly give the label for the entry you pick.
1
(1: 6.9, 2: 10.5)

====

# system.under.test: GluA1o-γ8 (GRIA1o-CACNG8 fusion construct; TARP γ8 dependent AMPA receptor) (Homo sapiens (Human), UniProt P42261+Q8WXS5)
# assay.notes: Calcium flux assay (FLIPR), inhibition of glutamate response of GluA1o-γ8 channel
# Format: cell-based
# experimental.parameters: HEK293 cells stably expressing GRIA1o-CACNG8 fusion; 15 μM glutamate; negative log of the IC50 in molar
test.readout: pIC50

compound	pIC50
Cc1cc(-c2c3nc(C(F)(F)F)ccc3nn2C)cc2c1NC(=O)C2 [Example 2]	7.9
CC(C)n1nc2ccc(C(F)(F)F)nc2c1-c1cc(Cl)c2c(c1)CC(=O)N2 [Example 22]	9.6
FC(F)(F)c1ccc2nn(C3CCC3)c(-c3cc(Cl)c4[nH]ncc4c3)c2n1 [Example 28]	10.7
Cc1cc(-c2c3nc(C(F)(F)F)ccc3nn2C2CCCC2)cc2cn[nH]c12 [Example 8]	9.9
FC(F)n1nc2ccc(C(F)(F)F)nc2c1-c1cc(Cl)c2[nH]ncc2c1 [Example 31]	9.2
CC(C)n1nc2ccc(C(F)(F)F)nc2c1-c1cc(Cl)c2[nH]ncc2c1 [Example 24]	10.2

====

# system.under.test: GluA1o-γ8 (GRIA1o-CACNG8 fusion construct; TARP γ8 dependent AMPA receptor) (Homo sapiens (Human), UniProt P42261+Q8WXS5)
# assay.notes: Calcium flux assay (FLIPR), inhibition of glutamate response of GluA1o-γ8 channel
# Assay type: cell-based
# experimental.parameters: HEK293 cells stably expressing GRIA1o-CACNG8 fusion; 15 μM glutamate; negative log of the IC50 in molar
test.readout: pIC50

Cc1cc(-c2c3nc(C(F)(F)F)ccc3nn2C2CCC2)cc2cn[nH]c12 10.7
CC(C)n1nc2ccc(C(F)F)nc2c1-c1cc(Cl)c2c(c1)CC(=O)N2 9.4
Cc1cc(-c2c3nc(C(F)F)cc(C(F)F)c3nn2C(C)C)cc2cn[nH]c12 9.8
O=C1Cc2cc(-c3c4nc(C(F)(F)F)ccc4nn3-c3ccccc3)ccc2N1 8.2
Cc1cc(-c2c3nc(C(F)(F)F)ccc3nn2C)cc2cn[nH]c12 9.0
CC(C)n1nc2ccc(C(F)(F)F)nc2c1-c1ccc2[nH]c(=O)[nH]c2c1 7.6
